Test: In vivo pharmacokinetics of polymer conjugate
Design: species or system Sprague-Dawley rats
Details: SDX-7539 single bolus IV 30 mg/kg, rat plasma
observable: Cmax

-- ask I am curious: what Cmax value has been reported for CO[C@@H]1[C@H](OC(=O)NC2CCC(N)CC2)CC[C@]2(CO2)[C@H]1[C@@]1(C)O[C@@H]1CC=C(C)C (stereo partly shown) [SDX-7539] ?
-- reply ~15 µM
